Each entry below carries its recorded IC50, Activin SMAD RGA.
# targetOrSystem: ActRIIA and ActRIIB (on TGFB/SMAD SBE Reporter HEK293 cells) (human)
# Sequence (chain, as listed by the source, chain 1 of 2): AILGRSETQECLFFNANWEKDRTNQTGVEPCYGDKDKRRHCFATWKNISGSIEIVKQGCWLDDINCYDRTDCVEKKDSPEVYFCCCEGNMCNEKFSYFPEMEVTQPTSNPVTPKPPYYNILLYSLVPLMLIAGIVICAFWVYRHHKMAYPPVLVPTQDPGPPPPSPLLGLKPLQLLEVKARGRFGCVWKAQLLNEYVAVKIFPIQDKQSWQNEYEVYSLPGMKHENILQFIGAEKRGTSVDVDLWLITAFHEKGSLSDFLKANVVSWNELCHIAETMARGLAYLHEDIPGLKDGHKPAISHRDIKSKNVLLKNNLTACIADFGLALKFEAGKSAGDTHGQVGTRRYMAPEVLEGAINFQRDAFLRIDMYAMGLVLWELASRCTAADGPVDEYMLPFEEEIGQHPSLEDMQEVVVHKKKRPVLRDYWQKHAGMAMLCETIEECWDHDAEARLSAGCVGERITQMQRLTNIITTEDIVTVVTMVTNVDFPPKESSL
# Sequence (chain, as listed by the source, chain 2 of 2): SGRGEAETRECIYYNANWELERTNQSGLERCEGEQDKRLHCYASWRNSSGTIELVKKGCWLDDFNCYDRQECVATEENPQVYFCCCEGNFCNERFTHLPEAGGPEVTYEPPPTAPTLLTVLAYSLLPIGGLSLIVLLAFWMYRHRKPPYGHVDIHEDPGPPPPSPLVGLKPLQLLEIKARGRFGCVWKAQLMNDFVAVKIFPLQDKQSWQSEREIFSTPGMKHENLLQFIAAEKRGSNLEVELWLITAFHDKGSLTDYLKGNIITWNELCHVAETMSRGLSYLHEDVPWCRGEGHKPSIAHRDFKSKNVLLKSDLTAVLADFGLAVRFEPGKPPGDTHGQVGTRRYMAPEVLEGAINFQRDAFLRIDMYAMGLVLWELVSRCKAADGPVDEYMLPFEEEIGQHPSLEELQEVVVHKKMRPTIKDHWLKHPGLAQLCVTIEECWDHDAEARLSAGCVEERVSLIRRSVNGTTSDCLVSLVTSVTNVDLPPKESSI
# experimentalDetails: cell-based or functional assay
assayEndpoint: IC50, Activin SMAD RGA (nM)

{"binder": "Antibody Bebballesgmias (antibody, V domains shown, full-length IgG) VH: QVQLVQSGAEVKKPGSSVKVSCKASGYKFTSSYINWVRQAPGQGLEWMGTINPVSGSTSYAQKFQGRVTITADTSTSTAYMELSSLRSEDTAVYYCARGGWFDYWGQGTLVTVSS VL: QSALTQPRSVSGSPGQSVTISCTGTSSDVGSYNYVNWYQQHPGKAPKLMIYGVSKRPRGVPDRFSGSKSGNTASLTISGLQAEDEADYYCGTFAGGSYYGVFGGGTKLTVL", "assayEndpoint": "IC50, Activin SMAD RGA", "reportedValue": 0.171}
{"binder": "Antibody Hefaknöpfla (antibody, V domains shown, full-length IgG) VH: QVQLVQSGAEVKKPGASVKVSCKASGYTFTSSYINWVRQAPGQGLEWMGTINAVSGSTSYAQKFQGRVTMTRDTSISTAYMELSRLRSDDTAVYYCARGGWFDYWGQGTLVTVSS VL: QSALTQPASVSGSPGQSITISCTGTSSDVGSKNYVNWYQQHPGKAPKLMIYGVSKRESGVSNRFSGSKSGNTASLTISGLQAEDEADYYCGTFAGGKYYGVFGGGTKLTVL", "assayEndpoint": "IC50, Activin SMAD RGA", "reportedValue": 0.139}
